Assay: FRG1 expression reporter modulators in myotubes – cell-based, C2C12 myotubes, firefly/Renilla luciferase, luminescence, FRG1 inhibition for FSHD, primary screen (AID 1084)
Settings: FRG1 promoter luciferase, higher = more signal, called active from +8 up or from −8 down
Classification field: enter Y for z-score values not below 0.05, N for values below it.

Some solved cases for reference:
compound	answer_label
COCCCNC(=O)[C@@]1(Cc2ccccc2)N=C(c2ccc(OCCCO)cc2)O[C@H]1c1ccccc1CN=[N+]=[N-]	N
COCC(=C=CC[C@H](O)c1cccc(OCCO)c1)CCO	Y
COC(=O)C[C@H]1O[C@@H](CCc2ccccc2)[C@@H](C)[C@@H]1[Si](C)(C)c1ccc(OC)cc1	N
CC(C)C(=C=CC[C@H](O)c1ccc(CO)o1)CCO	Y
CCCCN1CC=CC23O[C@@H]4C=CCOC(=O)[C@@H]4[C@H]2C(=O)N(CCCCCCO)[C@@H]3C1=O (stereo partly drawn)	N

Hi team, for CC(C)(C)OC(=O)CC[C@@]1(C(=O)N2CCCCC2)N=C(c2ccc(OCCCO)cc2)O[C@@H]1c1ccccc1 , is the recorded z-score at or above 0.05?
N

Hi team, for COc1ccc([Si](C)(C)[C@@H]2[C@@H](CC(=O)N3Cc4ccccc4C[C@H]3CO)O[C@]3(C(=O)N(Cc4cccc(N5CCC5=O)c4)c4ccccc43)[C@H]2C)cc1 , is the recorded z-score at or above 0.05?
N

Hi team, for CCOC(=O)C[C@H]1[C@H](OC(=O)c2cc3ccccc3oc2=O)[C@@H](NC(=O)CC(C)C)c2cc(OCCCO)ccc2N1C(=O)c1ccccc1 , is the recorded z-score at or above 0.05?
N

Hi team, for O=C1NC(=O)C2C1C=CC(C(O)c1ccc(I)cc1)N2Nc1ccccn1 (stereo not drawn) , is the recorded z-score at or above 0.05?
Y

Hi team, for COCCOC(=O)N1C(=O)[C@@]2(c3cc(C#CC4(O)CCCCCC4)ccc31)[C@H](C(=O)Nc1nc3ccccc3s1)[C@H]1C(=O)O[C@H](c3ccccc3)[C@H](c3ccccc3)N1[C@@H]2c1ccccc1OCCO , is the recorded z-score at or above 0.05?
Y

Hi team, for COc1ccc(C(O)C2C=CC3C(=O)N(C)C(=O)C3N2NC(=O)OC(C)(C)C)c2ccccc12 (stereo not drawn) , is the recorded z-score at or above 0.05?
N

Hi team, for COC(=O)[C@]1(CCC(=O)OC(C)(C)C)N=C(c2ccc(OCCCO)cc2)O[C@@H]1c1ccccc1 , is the recorded z-score at or above 0.05?
N

Hi team, for CC#CC(=O)Oc1ccc(Br)cc1C=CC(=O)OCC , is the recorded z-score at or above 0.05?
Y

Hi team, for COc1cc(CO)cc(I)c1O[C@H]1C=C(C(=O)NCCO)C[C@@H](NC[C@@H]2CCCO2)[C@@H]1O , is the recorded z-score at or above 0.05?
N

Hi team, for COCCCNC(=O)[C@@]1(Cc2ccccc2CN=[N+]=[N-])N=C(c2ccc(OCCCO)cc2)O[C@H]1c1ccccc1CN=[N+]=[N-] , is the recorded z-score at or above 0.05?
Y

Hi team, for O=C1O[C@H](c2ccccc2)[C@H](c2ccccc2)N2[C@H]1[C@@H](C(=O)NC[C@H](O)c1ccccc1)[C@]1(C(=O)Nc3ccc(C#CC4=CCCCC4)cc31)[C@H]2c1ccccc1OCCO , is the recorded z-score at or above 0.05?
N

Hi team, for CC(C)Cc1ccc(CN2CC[C@@H](N)C2)cc1 , is the recorded z-score at or above 0.05?
N

Hi team, for O=C(NCCN1CCOCC1)[C@@H]1c2ccccc2C(=O)N(Cc2cc(C(F)(F)F)cc(C(F)(F)F)c2)[C@H]1c1ccc(CO)cc1 , is the recorded z-score at or above 0.05?
N

Hi team, for [N-]=[N+]=NCc1ccccc1[C@H]1OC(c2ccc(OCCCO)cc2)=N[C@@]1(Cc1ccccc1)C(=O)N1CCCCC1 , is the recorded z-score at or above 0.05?
N
